system: Saccharomyces cerevisiae BY4741 SeMeCo community; experiment: z-score of subpopulation abundance vs DMSO median, subpopulation auxotrophic for HL; higher = larger share of this subpopulation than in DMSO controls; details: 10 µM; 24 h; SM minimal medium; subpopulation (auxotrophy): HL
Counter-ions that a name gives are not always drawn.
REPORTED_ENDPOINT: z-score of subpopulation abundance
Hey, just send me the number, nothing else.

As a guide, the following entries are already answered.
CCN1CCCC1CNC(=O)c1cc(S(=O)(=O)CC)c(N)cc1OC (stereo unspecified) [Amisulpride]	-0.73
COc1ccc(NS(=O)(=O)c2ccc(N)cc2)nn1 [Sulfamethoxypyridazine]	-1.05
COC1C(O)CC(=O)OC(C)CC=CC=CC(OC2CCC(N(C)C)C(C)O2)C(C)CC(CC=O)C1OC1OC(C)C(OC2CC(C)(O)C(O)C(C)O2)C(N(C)C)C1O (stereo unspecified) [Spiramycin]	0.65
CC(C)(C)C1CCC(CC2=C(O)c3ccccc3C(=O)C2=O)CC1 (stereo unspecified) [Buparvaquone]	-0.13
CC1(C)S[C@@H]2[C@H](NC(=O)[C@H](N)c3ccccc3)C(=O)N2[C@H]1C(=O)OCOC(=O)[C@@H]1N2C(=O)C[C@H]2S(=O)(=O)C1(C)C [Sultamicillin Tosylate]	0.21

Pending compound:
Lookup: Recorded z-score of subpopulation abundance of CC[C@H]1OC(=O)[C@H](C)[C@@H](O[C@H]2C[C@@](C)(OC)[C@@H](O)[C@H](C)O2)[C@H](C)[C@@H](O[C@@H]2O[C@H](C)C[C@H](N(C)C)[C@H]2O)[C@](C)(O)C[C@@H](C)CN(C)[C@H](C)[C@@H](O)[C@]1(C)O [Azithromycin Dihydrate] , please.
Found: 0.05
